These data points were gathered from PubChem BioAssay (NCI).

# Assay Remarks: NCI Yeast Anticancer Drug Screen. Data for the mec2-1 strain (AID 157)
# Condition Description: S. cerevisiae mec2-1 strain, at 50.0 µM (retest, dose inferred, filed as 5.0)
Compounds without any hit were thinned out: in the full panel of roughly 79,000, 15% have a hit. The source made the active and inactive calls. No stated cut-off is given here; in the data, active means growth inhibition above about 70%; inactive means the rest.
Labels: y = active, n = inactive

| Molecule | Label |
| --- | --- |
| O=C(Cc1nc2ccccc2s1)C(=O)Nc1ccc(Cl)cc1 | n |
| BrC(Br)=C1C(=C(Br)Br)C(Br)C1Br (stereo unspecified) | n |
| C/C=C1\CC(C)(CC)C(C#N)(C#N)C(N)=C1C#N (stereo unspecified) | n |
| N#CC12CC3=C(N=C1NC1=C(CCc4ccccc41)C2)c1ccccc1CC3 (stereo unspecified) | n |
| O=C(NCCCCC(NC(=O)OCc1ccccc1)C(=O)Nc1ccc(Nc2ccc(NC(=O)C(CCCCNC(=O)OCc3ccccc3)NC(=O)OCc3ccccc3)cc2)cc1)OCc1ccccc1 (stereo unspecified) | n |
| COC(=O)c1c(C)cccc1C1CN=NC12Cc1ccc(C)c(C)c1C2=O (stereo unspecified) | n |
| c1ccc([CH2][Sn]([CH2]c2ccccc2)([S]c2cccc3cccnc23)[S]c2cccc3cccnc23)cc1 | n |
| Cc1ccc(S(=O)(=O)C(Br)CC(=O)c2ccccc2)cc1 (stereo unspecified) | y |
| Cc1ccc2c(c1)-c1c(c3c(c4c1-c1cc(C)ccc1CC4)C(=O)OC3=O)CC2 | n |
| COc1ccc2nc(-c3ccc(Cl)cc3)[nH]c2c1 | y |
| COc1ccc(/C=C2\C(=O)N(C)C(=O)c3cc(OC)c(OC)cc32)cc1OC | n |
| O=C(C=P(c1ccccc1)(c1ccccc1)c1ccccc1)c1ccccc1-c1ccccc1C(=O)C=P(c1ccccc1)(c1ccccc1)c1ccccc1 | y |
| O=C1/C(=C/c2ccc(F)cc2)CNC/C1=C\c1ccc(F)cc1 | n |
| COc1ccc2c(c1)C=C([N+](=O)[O-])C(C1OC(C)(C)OC1C1COC(C)(C)O1)O2 (stereo unspecified) | n |
| C/C=C/C(=O)N1c2ccccc2CC1c1c(C)[nH]c2ccccc12 (stereo unspecified) | y |
| CCCCN(C(=O)c1ccccc1)C1CCC(=O)c2[nH]c3ccccc3c21 (stereo unspecified) | n |
| CC(CN1CCCCCCC1)C(c1ccccc1)c1ccccc1 (stereo unspecified) | y |
| CC(=O)OC1COC(n2ccc3cc(Br)c([N+](=O)[O-])cc32)C(OC(C)=O)C1OC(C)=O (stereo unspecified) | n |
| CCN(CC)CCC(=O)/C=C/c1ccc(Cl)c(Cl)c1 | y |
| CCCCCCCCCCCCCCCCP(=O)([O-])OCC[N+](C)(C)C | y |
| COc1ccc(NC(=O)/C(=C/c2ccccc2)C(C)=O)cc1 | y |
